Source: patent US5068349A

Tested on: Sarcoma 180 solid tumor
Experiment: Determination of ED50 against Sarcoma 180 solid tumor
Format: in vivo
Conditions: Mus musculus, Sarcoma-180, 168 h; dose at T/C 0.5 (tumor volume, 7 days after implantation), male ddY mice, intravenous, 24 hours after implantation
QUANTITY NAME: ED50 (mg/kg)
Write the number in mg/kg without appending the unit.

Worked examples follow.
COMPOUND: COC12C(COC(N)=O)C3=C(C(=O)C4=C(NCCSC4)C3=O)N1CC1NC12 (centres unmarked) [Compound 20]
TARGET SYSTEM: Sarcoma 180 solid tumor
QUANTITY NAME: ED50
ENDPOINT UNIT: mg/kg
OBSERVED MEASUREMENT: 12.6
//
COMPOUND: COC12C(COC(N)=O)C3=C(C(=O)C(COC(C)C)=C(N)C3=O)N1CC1NC12 (centres unmarked) [Compound 8, 6-Demethyl-6-isopropoxymethylmitomycin C]
TARGET SYSTEM: Sarcoma 180 solid tumor
QUANTITY NAME: ED50
ENDPOINT UNIT: mg/kg
OBSERVED MEASUREMENT: 14.9
//
COMPOUND: COC12C(COC(N)=O)C3=C(C(=O)C(CSC(C)C)=C(N)C3=O)N1CC1NC12 (centres unmarked) [Compound 16]
TARGET SYSTEM: Sarcoma 180 solid tumor
QUANTITY NAME: ED50
ENDPOINT UNIT: mg/kg
OBSERVED MEASUREMENT: 8.4
//
COMPOUND: COC12C(COC(N)=O)C3=C(C(=O)C(CSCc4ccccc4)=C(N)C3=O)N1CC1NC12 (centres unmarked) [Compound 18, 6-Demethyl-6-benzylthiomethylmitomycin C]
TARGET SYSTEM: Sarcoma 180 solid tumor
QUANTITY NAME: ED50
ENDPOINT UNIT: mg/kg
OBSERVED MEASUREMENT: 20.2

Query compound follows.
Looking up COC12C(COC(N)=O)C3=C(C(=O)C(CSc4ccccc4)=C(N)C3=O)N1CC1NC12 (centres unmarked) [Compound 17, 6-Demethyl-6-phenylthiomethylmitomycin C] , I see its ED50 listed as 6.1

* * *

Test: Determination of LD50 (single administration, 14 days observation)
Conditions: mouse, in vivo, ddY mice, intravenous, Behrens Kaerber's method
QUANTITY NAME: LD50 at 336 h

Here's what some known entries look like.
COMPOUND: COC12C(COC(N)=O)C3=C(C(=O)C(CSCc4ccccc4)=C(N)C3=O)N1CC1NC12 (centres unmarked)
LD50 at 336 h: 56.6 mg/kg

COMPOUND: COC12C(COC(N)=O)C3=C(C(=O)C(CSc4ccccc4)=C(N)C3=O)N1CC1NC12 (centres unmarked)
LD50 at 336 h: 50 mg/kg

COMPOUND: COC12C(COC(N)=O)C3=C(C(=O)C(COC(C)C)=C(N)C3=O)N1CC1NC12 (centres unmarked)
LD50 at 336 h: > 50 mg/kg

Memo: COC12C(COC(N)=O)C3=C(C(=O)C(CSC(C)C)=C(N)C3=O)N1CC1NC12 (centres unmarked) , reported LD50 at 336 h: 37.5 mg/kg

Per the record, COC12C(COC(N)=O)C3=C(C(=O)C4=C(NCCSC4)C3=O)N1CC1NC12 (centres unmarked) has LD50 at 336 h of 22.5 mg/kg
